# Tested on: TNFα
# assay_text: Cot Monocyte TNFα Cell Based Assay
# condition_info: Homo sapiens, Monocyte, read-out: EC50 TNF, LPS-stimulated human monocytes, TNFα
outcome_measure: EC50 (nM)

>>> observed_value("N#CCC[C@@H](Nc1c(C#N)cnc2c(Cl)cc(N[C@H](c3cn(C4CC4)nn3)c3csc4c3CCN(C3COC3)C4)cc12)c1ccccc1")
10
>>> observed_value("CC(C)(C)CNc1c(C#N)cnc2c(Cl)cc(N[C@H](c3cn(C4(C(F)(F)F)CC4)nn3)c3cccc4ncccc34)cc12")
154
>>> observed_value("CCC1(n2cc([C@@H](Nc3cc(Cl)c4ncc(C#N)c(NCC(C)(C)C)c4c3)c3ccc(F)nc3C)nn2)CC1")
31

* * *

# test_target: Human Cot (Homo sapiens (Human))
# Sequence (P41279 30-397): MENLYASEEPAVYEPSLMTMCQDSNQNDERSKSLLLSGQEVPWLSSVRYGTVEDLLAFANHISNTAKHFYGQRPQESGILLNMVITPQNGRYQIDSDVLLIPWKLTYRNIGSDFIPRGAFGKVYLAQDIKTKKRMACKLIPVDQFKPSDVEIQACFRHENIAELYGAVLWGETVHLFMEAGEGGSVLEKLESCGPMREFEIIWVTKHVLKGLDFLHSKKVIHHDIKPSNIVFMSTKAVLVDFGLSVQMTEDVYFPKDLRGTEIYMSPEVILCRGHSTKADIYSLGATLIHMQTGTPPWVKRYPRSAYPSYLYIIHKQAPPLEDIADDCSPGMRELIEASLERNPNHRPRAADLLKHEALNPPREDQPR
# assay_text: High Throughput Cot Biochemical Assay
# condition_info: read-out: IC50 HTRF; Cot HTRF (TR-FRET KinEASE) biochemical assay, 400 μM ATP
pIC50: −log10 of the molar value.
outcome_measure: pIC50

>>> observed_value("COc1nccc2c([C@H](Nc3cc(Cl)c4ncc(C#N)c(NCC(C)(C)C)c4c3)c3cn(C(CF)CF)nn3)cccc12")
7.54
>>> observed_value("Cc1ccc2c([C@H](Nc3cc(C#N)c4ncc(C#N)c(NCC(C)(C)C)c4c3)c3cn(C4(C)CC4)nn3)cccc2n1")
8.52
>>> observed_value("COc1nccc2c([C@H](Nc3cc(C#N)c4ncc(C#N)c(NCC(C)(C)C)c4c3)c3cn(C4CC4)nn3)cccc12")
8.52
>>> observed_value("COc1nccc2c([C@H](Nc3cc(Cl)c4ncc(C#N)c(NCC(C)(C)C)c4c3)c3nnn(C4(C(F)F)CC4)c3F)cccc12")
7.80
>>> observed_value("CC(C)(C)CNc1c(C#N)cnc2c(C#N)cc(N[C@H](c3cn(C(CF)CF)nn3)c3cccc4ncccc34)cc12")
8.40
>>> observed_value("COc1nccc2c([C@H](Nc3cc(C#N)c4ncc(C#N)c(NCC(C)(C)C(F)(F)F)c4c3)c3cn(C4(C(F)F)CC4)nn3)cccc12")
8.52
>>> observed_value("COc1nccc2c([C@H](Nc3cc(Cl)c4ncc(C#N)c(NCC(C)(C)C)c4c3)c3cn(C4(C)CC4)nn3)cccc12")
8.22
>>> observed_value("Cc1nc(F)ccc1[C@H](Nc1cc(C#N)c2ncc(C#N)c(NCC(C)(C)C(F)(F)F)c2c1)c1cn(C2(C(F)F)CC2)nn1 [Example 841]")
8.70
>>> observed_value("Cc1nc(F)ccc1[C@H](Nc1cc(C#N)c2ncc(C#N)c(NCC(C)(C)C)c2c1)c1nnn(C2(C3CC3)CC2)c1F")
8.40
>>> observed_value("Cn1ccc2c([C@H](Nc3cc(Cl)c4ncc(C#N)c(NCC(C)(C)C)c4c3)c3cn(C4(C)CCC4)nn3)cccc2c1=O")
8.70
>>> observed_value("Cc1nnc(C2(n3cc([C@@H](Nc4cc(C#N)c5ncc(C#N)c(NCC(C)(C)C)c5c4)c4ccc(F)nc4C)nn3)CC2)o1")
8.40
>>> observed_value("COc1nccc2c([C@H](Nc3cc(Cl)c4ncc(C#N)c(NCC(C)(C)C)c4c3)c3cn(C4(C(F)(F)F)CC4)nn3)cccc12")
7.96
>>> observed_value("COc1nccc2c([C@H](Nc3cc(C#N)c4ncc(C#N)c(NCC(C)(C)C)c4c3)c3cn(C(CF)CF)nn3)cccc12")
8.15
>>> observed_value("COc1nccc2c([C@H](Nc3cc(C#N)c4ncc(C#N)c(NCC(C)(C)C(F)(F)F)c4c3)c3cn(C45CC(C4)C5)nn3)cccc12")
8.52
>>> observed_value("COc1nccc2c([C@H](Nc3cc(Cl)c4ncc(C#N)c(NCC(C)(C)C(F)(F)F)c4c3)c3cn(C4(C(F)F)CC4)nn3)cccc12")
8.15
>>> observed_value("Cc1nc(F)ccc1[C@H](Nc1cc(-c2cncnc2)c2ncc(C#N)c(NCC(C)(C)C)c2c1)c1cn(C2(C(F)F)CC2)nn1")
7.68
>>> observed_value("Cn1ccc2c([C@H](Nc3cc(C#N)c4ncc(C#N)c(NCC(C)(C)C)c4c3)c3cn(C4(C(F)F)CC4)nn3)cccc2c1=O")
9.00
